Test system: MCF7
assay_text: Cytotoxicity against human MCF7 breast cancer cell line
Assay type: functional, cell-based
pIC50: −log10 of the molar value.
property: pIC50

Ask: Quick one: pIC50 for `COc1ccc(OC)c([C@@H]2C[C@H]3[C@@H]4CC=C5C[C@@H](O[C@H]6O[C@H](CO)[C@@H](O[C@H]7O[C@H](CO)[C@@H](O)[C@H](O)[C@H]7O)[C@H](O)[C@H]6O)CC[C@]5(C)[C@H]4CC[C@]3(C)[C@H]2C(C)=O)c1` ?
Result: < 5.00

Ask: Then this compound: `COc1ccc(OC)c([C@@H]2C[C@H]3[C@@H]4CC=C5C[C@@H](O[C@H]6O[C@@H](C)[C@@H](O)[C@@H](O)[C@@H]6O)CC[C@]5(C)[C@H]4CC[C@]3(C)[C@H]2[C@H](C)O[C@H]2O[C@@H](C)[C@@H](O)[C@@H](O)[C@@H]2O)c1`
Result: < 5.00

---

Tested on: MCF7
assay_text: Cytotoxicity against human MCF7 breast cancer cell line
Format: functional, cell-based
pIC50: −log10 of the molar value.
property: pIC50

Ask: Look up pIC50 with MCF7 for this molecule: `COc1ccc(OC)c([C@@H]2C[C@H]3[C@@H]4CC=C5C[C@@H](O[C@@H]6O[C@H](CO[C@H]7O[C@H](CO)[C@@H](O)[C@H](O)[C@H]7O)[C@@H](O)[C@H](O)[C@H]6O)CC[C@]5(C)[C@H]4CC[C@]3(C)[C@H]2[C@H](C)O[C@@H]2O[C@H](CO[C@H]3O[C@H](CO)[C@@H](O)[C@H](O)[C@H]3O)[C@@H](O)[C@H](O)[C@H]2O)c1`
Result: < 5.00

Ask: Then this molecule: `COc1ccc(OC)c([C@@H]2C[C@H]3[C@@H]4CC=C5C[C@@H](O[C@H]6O[C@H](CO)[C@@H](O[C@@H]7O[C@H](CO)[C@H](O)[C@H](O)[C@H]7O)[C@H](O)[C@H]6O)CC[C@]5(C)[C@H]4CC[C@]3(C)[C@H]2[C@H](C)O[C@H]2O[C@H](CO)[C@@H](O[C@@H]3O[C@H](CO)[C@H](O)[C@H](O)[C@H]3O)[C@H](O)[C@H]2O)c1`
Result: < 5.00

---

Test system: A549
assay_text: Antimigratory activity against human A549 NSCLC cell line at 100 nM after 22h
Assay type: functional
recorded_conditions: A549, 22 h
For each of the compounds below, state its inhibition at 0.1 µM.
Give just the number in %; leave the unit off.

Ask: Look up inhibition at 0.1 µM with A549 for this compound: `COc1ccc(OC)c([C@@H]2C[C@H]3[C@@H]4CC=C5C[C@@H](O[C@@H]6O[C@H](CO)[C@@H](O)[C@H](O)[C@H]6O)CC[C@]5(C)[C@H]4CC[C@]3(C)[C@H]2C(C)=O)c1`
Result: 9

Ask: Then this compound: `COc1ccc(OC)c([C@@H]2C[C@H]3[C@@H]4CC=C5C[C@@H](O[C@H]6O[C@H](CO[C@@H]7O[C@H](CO)[C@@H](O)[C@H](O)[C@H]7O)[C@@H](O)[C@H](O)[C@H]6O)CC[C@]5(C)[C@H]4CC[C@]3(C)[C@H]2C(C)=O)c1`
Result: -4

Ask: Then this compound: `COc1ccc(OC)c([C@@H]2C[C@H]3[C@@H]4CC=C5C[C@@H](O[C@@H]6O[C@H](CO)[C@@H](O)[C@H](O)[C@H]6NC(C)=O)CC[C@]5(C)[C@H]4CC[C@]3(C)[C@H]2C(C)=O)c1`
Result: -39

Ask: Then this compound: `COc1ccc(OC)c([C@@H]2C[C@H]3[C@@H]4CC=C5C[C@@H](O[C@H]6O[C@H](CO)[C@@H](O[C@@H]7O[C@H](CO)[C@H](O)[C@H](O)[C@H]7O)[C@H](O)[C@H]6O)CC[C@]5(C)[C@H]4CC[C@]3(C)[C@H]2C(C)=O)c1`
Result: -5

---

For each of the molecules below, state its inhibition at 0.1 µM.
System: A549
assay_text: Antimigratory activity against human A549 NSCLC cell line at 100 nM after 22h
Format: functional
recorded_conditions: A549, 22 h
Give just the number in %; leave the unit off.

Ask: Quick one: inhibition at 0.1 µM for `COc1ccc(OC)c([C@@H]2C[C@H]3[C@@H]4CC=C5C[C@@H](O[C@H]6O[C@@H](C)[C@@H](O)[C@@H](O)[C@@H]6O)CC[C@]5(C)[C@H]4CC[C@]3(C)[C@H]2C(C)=O)c1` ?
Result: -8

Ask: Then this molecule: `COc1ccc(OC)c([C@@H]2C[C@H]3[C@@H]4CC=C5C[C@@H](O[C@H]6O[C@H](CO)[C@@H](O[C@H]7O[C@H](CO)[C@@H](O)[C@H](O)[C@H]7O)[C@H](O)[C@H]6O)CC[C@]5(C)[C@H]4CC[C@]3(C)[C@H]2C(C)=O)c1`
Result: 5

Ask: Then this molecule: `COc1ccc(OC)c([C@@H]2C[C@H]3[C@@H]4CC=C5C[C@@H](O[C@@H]6O[C@H](CO)[C@@H](O)[C@H](O)[C@@H]6O)CC[C@]5(C)[C@H]4CC[C@]3(C)[C@H]2C(C)=O)c1`
Result: 1

Ask: Then this molecule: `COc1ccc(OC)c([C@@H]2C[C@H]3[C@@H]4CC=C5C[C@@H](O[C@H]6O[C@H](CO)[C@@H](O[C@@H]7O[C@H](CO)[C@H](O)[C@H](O)[C@H]7O)[C@H](O)[C@H]6O)CC[C@]5(C)[C@H]4CC[C@]3(C)[C@H]2[C@H](C)O[C@H]2O[C@H](CO)[C@@H](O[C@@H]3O[C@H](CO)[C@H](O)[C@H](O)[C@H]3O)[C@H](O)[C@H]2O)c1`
Result: -12

---

System: U373 MG
assay_text: Antimigratory activity against human U373 glioblastoma cell line at 100 nM after 12h
Format: functional, U-373MG ATCC
For each of the compounds below, state its inhibition at 0.1 µM.
Give just the number in %; leave the unit off.

Ask: Quick one: inhibition at 0.1 µM for `COc1ccc(OC)c([C@@H]2C[C@H]3[C@@H]4CC=C5C[C@@H](O[C@@H]6O[C@H](CO)[C@H](O)[C@H](O)[C@H]6O)CC[C@]5(C)[C@H]4CC[C@]3(C)[C@H]2C(C)=O)c1` ?
Result: 8

Ask: Then this compound: `COc1ccc(OC)c([C@@H]2C[C@H]3[C@@H]4CC=C5C[C@@H](O[C@H]6O[C@H](CO[C@@H]7O[C@H](CO)[C@@H](O)[C@H](O)[C@H]7O)[C@@H](O)[C@H](O)[C@H]6O)CC[C@]5(C)[C@H]4CC[C@]3(C)[C@H]2C(C)=O)c1`
Result: 0

Ask: Then this compound: `COc1ccc(OC)c([C@@H]2C[C@H]3[C@@H]4CC=C5C[C@@H](O[C@@H]6O[C@H](CO[C@H]7O[C@H](CO)[C@@H](O)[C@H](O)[C@H]7O)[C@@H](O)[C@H](O)[C@H]6O)CC[C@]5(C)[C@H]4CC[C@]3(C)[C@H]2C(C)=O)c1`
Result: -18

Ask: Then this compound: `COc1ccc(OC)c([C@@H]2C[C@H]3[C@@H]4CC=C5C[C@@H](O[C@@H]6O[C@H](CO)[C@@H](O)[C@H](O)[C@@H]6O)CC[C@]5(C)[C@H]4CC[C@]3(C)[C@H]2C(C)=O)c1`
Result: 2

Ask: Then this compound: `COc1ccc(OC)c([C@@H]2C[C@H]3[C@@H]4CC=C5C[C@@H](O[C@@H]6O[C@H](CO)[C@@H](O)[C@H](O)[C@H]6O)CC[C@]5(C)[C@H]4CC[C@]3(C)[C@H]2C(C)=O)c1`
Result: -6

Ask: Then this compound: `COc1ccc(OC)c([C@@H]2C[C@H]3[C@@H]4CC=C5C[C@@H](O[C@H]6O[C@H](CO)[C@@H](O[C@H]7O[C@H](CO)[C@@H](O)[C@H](O)[C@H]7O)[C@H](O)[C@H]6O)CC[C@]5(C)[C@H]4CC[C@]3(C)[C@H]2C(C)=O)c1`
Result: 2

Ask: Then this compound: `COc1ccc(OC)c([C@@H]2C[C@H]3[C@@H]4CC=C5C[C@@H](O[C@H]6O[C@@H](C)[C@@H](O)[C@@H](O)[C@@H]6O)CC[C@]5(C)[C@H]4CC[C@]3(C)[C@H]2[C@H](C)O[C@H]2O[C@@H](C)[C@@H](O)[C@@H](O)[C@@H]2O)c1`
Result: -4

Ask: Then this compound: `COc1ccc(OC)c([C@@H]2C[C@H]3[C@@H]4CC=C5C[C@@H](O[C@H]6O[C@H](CO)[C@@H](O[C@@H]7O[C@H](CO)[C@H](O)[C@H](O)[C@H]7O)[C@H](O)[C@H]6O)CC[C@]5(C)[C@H]4CC[C@]3(C)[C@H]2[C@H](C)O[C@H]2O[C@H](CO)[C@@H](O[C@@H]3O[C@H](CO)[C@H](O)[C@H](O)[C@H]3O)[C@H](O)[C@H]2O)c1`
Result: -12

Ask: Then this compound: `COc1ccc(OC)c([C@@H]2C[C@H]3[C@@H]4CC=C5C[C@@H](O[C@H]6O[C@H](CO)[C@@H](O[C@@H]7O[C@H](CO)[C@H](O)[C@H](O)[C@H]7O)[C@H](O)[C@H]6O)CC[C@]5(C)[C@H]4CC[C@]3(C)[C@H]2C(C)=O)c1`
Result: -29

Ask: Then this compound: `COc1ccc(OC)c([C@@H]2C[C@H]3[C@@H]4CC=C5C[C@@H](O[C@@H]6O[C@H](CO)[C@@H](O)[C@H](O)[C@H]6NC(C)=O)CC[C@]5(C)[C@H]4CC[C@]3(C)[C@H]2C(C)=O)c1`
Result: -17

Ask: Then this compound: `COc1ccc(OC)c([C@@H]2C[C@H]3[C@@H]4CC=C5C[C@@H](O[C@H]6O[C@@H](C)[C@@H](O)[C@@H](O)[C@@H]6O)CC[C@]5(C)[C@H]4CC[C@]3(C)[C@H]2C(C)=O)c1`
Result: -25

Ask: Then this compound: `COc1ccc(OC)c([C@@H]2C[C@H]3[C@@H]4CC=C5C[C@@H](O[C@@H]6O[C@H](CO[C@H]7O[C@H](CO)[C@@H](O)[C@H](O)[C@H]7O)[C@@H](O)[C@H](O)[C@H]6O)CC[C@]5(C)[C@H]4CC[C@]3(C)[C@H]2[C@H](C)O[C@@H]2O[C@H](CO[C@H]3O[C@H](CO)[C@@H](O)[C@H](O)[C@H]3O)[C@@H](O)[C@H](O)[C@H]2O)c1`
Result: -14

Ask: Then this compound: `COc1ccc(OC)c([C@@H]2C[C@H]3[C@@H]4CC=C5C[C@@H](O)CC[C@]5(C)[C@H]4CC[C@]3(C)[C@H]2C(C)=O)c1`
Result: 2

Ask: Then this compound: `COc1ccc(OC)c([C@@H]2C[C@H]3[C@@H]4CC=C5C[C@@H](O[C@@H]6O[C@H](CO)[C@@H](O[C@@H]7O[C@H](CO)[C@@H](O)[C@H](O)[C@H]7O)[C@H](O)[C@H]6O)CC[C@]5(C)[C@H]4CC[C@]3(C)[C@H]2C(C)=O)c1`
Result: 8

Ask: Then this compound: `COc1ccc(OC)c([C@@H]2C[C@H]3[C@@H]4CC=C5C[C@@H](O[C@@H]6O[C@H](CO)[C@@H](O[C@@H]7O[C@H](CO)[C@@H](O)[C@H](O)[C@H]7O)[C@H](O)[C@H]6O)CC[C@]5(C)[C@H]4CC[C@]3(C)[C@H]2[C@H](C)O[C@@H]2O[C@H](CO)[C@@H](O[C@@H]3O[C@H](CO)[C@@H](O)[C@H](O)[C@H]3O)[C@H](O)[C@H]2O)c1`
Result: -8

Reference for the values: ChEMBL document CHEMBL1138155
